assay: yeast display, Sf9 membrane polyspecificity reagent, FACS + sequencing; frameworks hold sequencing errors
measured endpoint: polyreactivity (PSR sort gate)

Solved entries:
QVQLVESVGGLVQAGGSLRLSCAASGITFSTNAMGWYRQAPGKERELVAAITSVTSTYYADSVKGRFTISRDNAKNTVYLQMNSLKPEDTAVYYCASRLSRWPYFYEYNYWGQGTQVTVSS | low polyreactivity
QDQLVESRGGLVQAGGSLRLSSAASGFTLVVNAMGWYRQAPGKERELVAAITSRCGGTYYADSVKGRFTISRDKANNSVYLQMNSLKPEDTAVYYCAAPSLIVSTHRYGYWGQGTEVTVSS | low polyreactivity
QVQLVESGGGLVQAGGSLRLSCAASGSTFPFYAMGWYRQAPGKEREFVAVISSSGGSTYYADSVKGRFTISRDNAKNTVYLQMNSLKPEDTAVYYCARSYPGRWYDYWGQGTQVTVSS | high polyreactivity
QVQLVESGVGLVQAGGSLRLSCAASGLILRKYAKGWYSQAPGKEREFVAAITQTGSRTYYADSVKGRFTISRDNAKNTVYLQMNSLKPEDTAVYYCNAVNYRSSRDSGYWGQGTQVTVSS | high polyreactivity
QVQLVESGGGLVQAGGSLRLSCAASGRTFVGYAMGWYRQAPGKERELVAAIRNGGGTYYADSVKGRFTISRDNAKNTVYLQMNSLKPEDTAVYYCAARLPRSLKVGYYWGQGTQVTVSS | high polyreactivity

Exercise: For the sequence "QVQLVESGGGLVQAGGSLRLSCAACGIIFVYYAMGWYRQAPGKERELVAAISSSGARTYYADSVKGRFTISRDNAKNTVYLQMNSLKPEDTAVYYCAARETRTKPIFYGYNYWGQGTQVTVSS" , report polyreactivity (PSR sort gate).
Key: high polyreactivity

Exercise: Please give the documented polyreactivity (PSR sort gate) of "QVQLEESGGGLVQAGGSLRLSCAASGSTFSYYAMGWYRQAPGKERELVAAITYSVGSTYYADSVKGRFTISRDNAKNTVYLQMNSLKPEDTAVYYCNKRYYYSRANYPYDYWGQGTQVTVSS"
Key: low polyreactivity

Exercise: Specify reported polyreactivity (PSR sort gate) for the sequence shown: "QVQLVESGGGLVQAGGSLRLSCAASGRIFDKNAMGWYRQAPGKERELVAAISGGGRTYYADSVKGRFTISRDNAKNTVYLLMNSLKPEDTAVYYCNVPYYYTRGSYGYWGQGTQVTVSS"
Key: low polyreactivity
